Task for the reader: assign each of the following molecules its reported growth.
Tested on: KM12 colon
Assay name: NCI-60 one-dose screen, 48 h (100 = growth as untreated, 0 = no growth, -100 = all killed)
Assay conditions: 10 µM unless noted
The panel holds about 83,000 compounds, 20% with a hit somewhere; the sample as a whole holds those more often. Active and inactive are the calls of the source. The calls were made as follows: active = growth percent below 10; inactive = the rest.

Please review the entries below; each comes with its answer.
- CCN(c1cc(-c2ccc(CN3CCC(/C=C/S(=O)(=O)c4ccccc4)CC3)cc2)cc(C(=O)NCc2c(C)cc(C)[nH]c2=O)c1C)C1CCOCC1: 76.1% (inactive)
- C=C1C(=O)O[C@H]2[C@H]1CC/C(COC(=O)NCCCCNC(=O)OC/C1=C/CC[C@@]3(C)O[C@H]3[C@H]3OC(=O)C(=C)[C@@H]3CC1)=C\CC[C@@]1(C)O[C@@H]21: 88.2% (inactive)

Lab note: next molecule to report on.
The reported growth value, KM12 colon, for C=C1C(=O)O[C@@H]2[C@H]3[C@H](COC(C)=O)[C@@H](OC(C)=O)C[C@H]3C(=C)[C@@H](O)C[C@@H]12 reads 99.8% (inactive)

* * *

For each of the compounds below, state its growth.
Tested on: MALME-3M melanoma
Assay name: NCI-60 one-dose screen, 48 h (100 = growth as untreated, 0 = no growth, -100 = all killed)
Assay conditions: 10 µM unless noted
This is part of a sample that, as a whole, favours compounds with a hit. Of some 83,000 tested, about 20% had one in any assay.
One number for each entry, in %.

Example results:
• CC[C@@H]1NC(=O)[C@H]([C@H](O)[C@H](C)C/C=C/c2ccc(CN3C(=O)C(C)=C(C)C3=O)cc2)N(C)C(=O)[C@H](C(C)C)N(C)C(=O)[C@H](CC(C)C)N(C)C(=O)[C@H](CC(C)C)N(C)C(=O)[C@@H](C)NC(=O)[C@H](C)NC(=O)[C@H](CC(C)C)N(C)C(=O)[C@H](C(C)C)NC(=O)[C@H](CC(C)C)N(C)C(=O)CN(C)C1=O = 88.2
• O=C1C(=C(O)c2ccccc2)C(=O)c2ccccc21 = 103

I need growth for every entry listed below, if you could help.
1. Cc1ccc2c(c1)C(C)Cc1c(ncnc1-n1cnc3cc(C)ccc31)N2C (centres undefined)
2. CN(C)C(=O)c1cc2cnc(Nc3ccc(-c4csc5c(=S)cc(N6CCOCC6)oc45)cc3)nc2n1C1CCCC1
3. C=C1C(=O)O[C@H]2[C@H]1CC/C(COC(=O)NCCCCNC(=O)OC/C1=C/CC[C@@]3(C)O[C@H]3[C@H]3OC(=O)C(=C)[C@@H]3CC1)=C\CC[C@@]1(C)O[C@@H]21
4. N#Cc1c(-c2cccc(F)c2)cc(-c2cccnc2)[nH]c1=O

76.9
17.8
-39.3
103

// for each compound in input: emit growth
1. O=C(CC1(O)C(=O)Nc2ccc(Br)cc21)c1ccc(Cl)cc1 (centres undefined)
2. COc1ccc(-c2[nH]c3ccccc3c2-c2ccc(OC)cc2)cc1

1: 103; 2: 73.3

Give growth for each listed item.
1. COc1nc2ccc(C)cc2cc1/C=[N+](\[O-])c1ccccc1
2. CCCCSc1ccc2nc(-c3ccc(OCCCN=C(N)N)cc3)cn2c1
3. CN(C)CCN1C(=O)c2c(c3c4ccccc4n4c3c3c2c2ccccc2n3C2CC(O)C(O)C4(C)O2)C1=O (centres undefined)
4. N#CC1=C(N)Oc2c(sc3c(Br)cccc23)C1c1ccccn1 (centres undefined)
5. C=C1CCC2C3(C)COC(c4ccc(NC(C)=O)cc4)OC3CCC2(C)C1C/C=C1/C(=O)OCC1O (centres undefined)
6. NC1=CC(=O)c2cccnc2C1=O
7. COc1ccc(/C=C/C(=O)c2cc3c(N)c(C(=O)Nc4ccccc4)sc3nc2C)cc1

94
23.2
23.5
45.4
66.6
-81.4
58.1

Would you be so kind as to report growth for each listed record?
1. O=C1OCC2=C1C(c1cccc(C(F)(F)F)c1)c1cc3c(cc1N2CCO)OCCO3 (centres undefined)
2. COc1ccc(Nc2nn3c(SCC(=O)c4ccc(C)cc4)nnc3s2)cc1
3. COc1ccc(-c2cc(-c3cc(OC)c(OC)c(OC)c3)c(C#N)c(=O)n2CCCCC(=O)O)cc1
4. CC1=CC(C)(C)NC(=S)N1c1ccc(Cl)cc1
5. CCCCCCCCn1ccc2cc(NC(=O)CN3CCN(c4nc(C)cc(N5CCCCC5)n4)CC3)ccc21
6. COc1ccc(C/C(C)=C(/c2ccc(OCCN3CCCCCC3)cc2)c2ccc(OC(=O)c3ccccc3)cc2)cc1
7. CSc1nnc(-c2cc3c([nH]c4ccccc43)c(-c3cccc(O)c3)n2)n1-c1ccc(C)cc1
8. CC(=O)c1c(C)nc2ccccc2c1/C=C/c1cccc(C)c1

1. 49.5
2. 98.7
3. 114
4. 99.7
5. 112
6. 104
7. 42
8. 82.9
